test system: MV4-11; assay: CellTox Green cytotoxicity fluorescence relative to DMSO vehicle (fold of vehicle RFU); higher = more cell death (loss of membrane integrity), active = 2 or more; details: 0.1 µM; 24 h
The reader will find reported CellTox Green cytotoxicity fluorescence values listed item by item below.
Result type: CellTox Green cytotoxicity fluorescence

INSERT INTO measurements (compound, result_type, value_observed) VALUES
  ('COc1cccc(-n2c(=O)[nH]c3cc(Cl)n(-c4ccc(-c5cccc(OC)c5O)cc4)c3c2=O)c1', 'CellTox Green cytotoxicity fluorescence', '0.975 (inactive)'),
  ('O=C(O)CSc1cc(NS(=O)(=O)c2ccc(Br)cc2)c2ccccc2c1O', 'CellTox Green cytotoxicity fluorescence', '0.988 (inactive)'),
  ('CC(C)(C)C[C@@H]1N[C@@H](C(=O)N[C@H]2CC[C@H](O)CC2)[C@H](c2cccc(Cl)c2F)[C@]12C(=O)Nc1cc(Cl)ccc12', 'CellTox Green cytotoxicity fluorescence', '0.993 (inactive)'),
  ('COc1cc(C(=O)N2CCC(N3CCN(C)CC3)CC2)ccc1Nc1ncc2c(n1)N(C)c1ccccc1C(=O)N2C', 'CellTox Green cytotoxicity fluorescence', '1.02 (inactive)'),
  ('O=C1NC(=NCc2cccs2)S/C1=C\c1ccc2ncccc2c1', 'CellTox Green cytotoxicity fluorescence', '0.997 (inactive)'),
  ('CC(=O)N1c2ccc(-c3ccc(C(=O)O)cc3)cc2[C@H](Nc2ccc(Cl)cc2)C[C@@H]1C', 'CellTox Green cytotoxicity fluorescence', '0.975 (inactive)'),
  ('C=CC(=O)N1CCN(C(=O)CNc2cc(I)c(Cl)cc2O)CC1 [K-Ras(G12C) inhibitor 12]', 'CellTox Green cytotoxicity fluorescence', '0.991 (inactive)'),
  ('NS(=O)(=O)C#Cc1ccccc1', 'CellTox Green cytotoxicity fluorescence', '0.994 (inactive)'),
  ('C[C@H]1Oc2cc(cnc2N)-c2c(nn(C)c2C#N)CN(C)C(=O)c2ccc(F)cc21', 'CellTox Green cytotoxicity fluorescence', '0.992 (inactive)'),
  ('CCOC(=O)c1[nH]c2cc(Cl)ccc2c1C(C(=O)NC(C)(C)C)N(C=O)Cc1ccc(Cl)cc1 (stereo not given)', 'CellTox Green cytotoxicity fluorescence', '0.989 (inactive)'),
  ('C/C(=N\NC(=O)c1cccc(S(=O)(=O)N2CCOCC2)c1)c1cc(Cl)ccc1O', 'CellTox Green cytotoxicity fluorescence', '0.98 (inactive)'),
  ('COCC[n+]1c2c(n(Cc3cnccn3)c1C)C(=O)c1ccccc1C2=O [Sepantronium Bromide]', 'CellTox Green cytotoxicity fluorescence', '1.02 (inactive)'),
  ('CCCCC(C=O)NC(=O)C(CC(C)C)NC(=O)C(CC(C)C)NC(C)=O (stereo not given)', 'CellTox Green cytotoxicity fluorescence', '1.01 (inactive)'),
  ('Nc1nc(F)nc2c1ncn2[C@@H]1O[C@H](CO)[C@@H](O)[C@@H]1O', 'CellTox Green cytotoxicity fluorescence', '0.992 (inactive)'),
  ('O=C(COc1ccc(Cl)cc1)NC1CCC(NC(=O)COc2ccc(Cl)cc2)CC1 (stereo not given)', 'CellTox Green cytotoxicity fluorescence', '1.01 (inactive)');
